Below, each entry is listed with its recorded inhibition at 10 µM.
- tested system: V2 (Homo sapiens, UniProt P30518)
- Construct: purchased NIMH Psychoactive Drug Screening Program (PDSP)
- Sequence (P30518 whole entry): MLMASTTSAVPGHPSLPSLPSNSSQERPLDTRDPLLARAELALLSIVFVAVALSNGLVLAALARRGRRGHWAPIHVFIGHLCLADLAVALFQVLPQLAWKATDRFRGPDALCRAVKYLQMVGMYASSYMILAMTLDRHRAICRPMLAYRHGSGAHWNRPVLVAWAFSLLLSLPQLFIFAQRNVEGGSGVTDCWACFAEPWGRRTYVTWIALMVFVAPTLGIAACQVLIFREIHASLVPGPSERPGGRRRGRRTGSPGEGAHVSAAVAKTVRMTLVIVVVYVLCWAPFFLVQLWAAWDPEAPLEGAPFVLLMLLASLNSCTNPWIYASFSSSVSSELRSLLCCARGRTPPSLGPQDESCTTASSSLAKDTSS
- assay explanation: PDSP primary binding V2
- run parameters: primary binding, 10,000 nM; last figure of the line = mean of the 4 before it; read-out: V2, PDSP raw data, mean
Provide the reading as a plain figure in %.

Worked cases, inhibition at 10 µM given:
compound | result unit | inhibition at 10 µM
C#Cc1ccc2c(c1)C(c1ccccn1)=N[C@@H](C)c1c(C(=O)NC)ncn1-2 [Compound 23] | % | 10.2
C#Cc1ccc2c(c1)C(c1ccccn1)=N[C@@H](C)c1c(C(=O)N(C)C)ncn1-2 [Compound 31] | % | 15.4
CC(C)c1noc(-c2ncn3c2[C@@H](C)N=C(c2ccccc2F)c2cc(Cl)ccc2-3)n1 [Compound 37] | % | -7.17
CCc1noc(-c2ncn3c2[C@@H](C)N=C(c2ccccc2F)c2cc(C4CC4)ccc2-3)n1 [Compound 46] | % | 48.4
C#Cc1ccc2c(c1)C(c1ccccc1F)=N[C@H](C)c1c(C(=S)N(C)C)ncn1-2 [Compound 33] | % | 19.7
C[C@H]1N=C(c2ccccc2F)c2cc(-c3ccccc3)ccc2-n2cnc(C(=O)N(C)C)c21 [Compound 5] | % | 19.7
CCc1noc(-c2ncn3c2CN=C(c2ccccc2F)c2cc(C4CC4)ccc2-3)n1 [Compound 44] | % | 27.7
CCc1noc(-c2ncn3c2[C@@H](C)N=C(c2ccccc2F)c2cc(Cl)ccc2-3)n1 [Compound 36] | % | 12.6
C#Cc1ccc2c(c1)C(c1ccccc1Cl)=N[C@H](C)c1c(C(=O)N(C)CC)ncn1-2 [Compound 29] | % | 21.9
C[C@H]1N=C(c2ccccc2F)c2cc(Cl)ccc2-n2cnc(-c3nc(C4CC4)no3)c21 [Compound 38] | % | 5.48

[ask] I have this compound here, C#Cc1ccc2c(c1)C(c1ccccc1Cl)=N[C@H](C)c1c(C(=O)NC)ncn1-2 [Compound 21] , and I need its recorded inhibition at 10 µM.
[reply] 43

[ask] I have this compound here, CCc1noc(-c2ncn3c2[C@@H](C)N=C(c2ccccc2F)c2cc(-c4ccccc4)ccc2-3)n1 [Compound 35] , and I need its recorded inhibition at 10 µM.
[reply] 37.4

----------
Below, each entry is listed with its recorded inhibition at 10 µM.
- tested system: D3 (Homo sapiens, UniProt P35462)
- Construct: purchased NIMH Psychoactive Drug Screening Program (PDSP)
- Sequence (P35462 whole entry): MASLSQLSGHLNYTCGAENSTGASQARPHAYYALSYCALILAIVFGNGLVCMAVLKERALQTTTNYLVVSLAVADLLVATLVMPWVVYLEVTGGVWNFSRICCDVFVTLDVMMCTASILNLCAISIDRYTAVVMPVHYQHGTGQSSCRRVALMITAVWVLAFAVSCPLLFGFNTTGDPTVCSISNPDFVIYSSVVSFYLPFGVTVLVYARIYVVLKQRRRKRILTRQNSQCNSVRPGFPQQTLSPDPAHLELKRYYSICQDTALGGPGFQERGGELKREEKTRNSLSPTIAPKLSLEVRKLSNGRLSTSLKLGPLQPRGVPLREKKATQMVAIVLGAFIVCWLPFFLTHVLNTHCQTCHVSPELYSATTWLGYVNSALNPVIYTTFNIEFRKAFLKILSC
- assay explanation: PDSP primary binding D3
- run parameters: 1.5 h; primary binding, 10,000 nM; last figure of the line = mean of the 4 before it; read-out: D3, PDSP raw data, mean
Provide the reading as a plain figure in %.

Worked cases, inhibition at 10 µM given:
compound | tested system | result unit | inhibition at 10 µM
CCc1noc(-c2ncn3c2[C@@H](C)N=C(c2ccccc2F)c2cc(Cl)ccc2-3)n1 [Compound 36] | D3 (Homo sapiens, UniProt P35462) | % | 4.97
C[C@H]1N=C(c2ccccc2F)c2cc(Cl)ccc2-n2cnc(-c3nc(C4CC4)no3)c21 [Compound 38] | D3 (Homo sapiens, UniProt P35462) | % | -0.07
CCc1noc(-c2ncn3c2[C@@H](C)N=C(c2ccccc2F)c2cc(-c4ccccc4)ccc2-3)n1 [Compound 35] | D3 (Homo sapiens, UniProt P35462) | % | 16.2
C[C@H]1N=C(c2ccccc2F)c2cc(-c3ccccc3)ccc2-n2cnc(C(=O)N(C)C)c21 [Compound 5] | D3 (Homo sapiens, UniProt P35462) | % | -3.57
C#Cc1ccc2c(c1)C(c1ccccc1Cl)=N[C@H](C)c1c(C(=O)N(C)CC)ncn1-2 [Compound 29] | D3 (Homo sapiens, UniProt P35462) | % | 13

[ask] I have this compound here, C#Cc1ccc2c(c1)C(c1ccccn1)=N[C@@H](C)c1c(C(=O)N(C)C)ncn1-2 [Compound 31] , and I need its recorded inhibition at 10 µM.
[reply] 1.06

[ask] I have this compound here, CC(C)c1noc(-c2ncn3c2[C@@H](C)N=C(c2ccccc2F)c2cc(Cl)ccc2-3)n1 [Compound 37] , and I need its recorded inhibition at 10 µM.
[reply] -0.7

[ask] I have this compound here, C#Cc1ccc2c(c1)C(c1ccccn1)=N[C@@H](C)c1c(C(=O)NC)ncn1-2 [Compound 23] , and I need its recorded inhibition at 10 µM.
[reply] 7.31

----------
Below, each entry is listed with its recorded NMDA, PDSP raw data, mean.
- Tested on: NMDA
- assay explanation: PDSP primary binding NMDA
- run parameters: primary binding, 10,000 nM; last figure of the line = mean of the 4 before it
Just so you know, I need the unit written after the number.

Worked cases, NMDA, PDSP raw data, mean given:
cpd smiles | NMDA, PDSP raw data, mean
CCc1noc(-c2ncn3c2[C@@H](C)N=C(c2ccccc2F)c2cc(Cl)ccc2-3)n1 | 55.6%
C#Cc1ccc2c(c1)C(c1ccccc1Cl)=N[C@H](C)c1c(C(=O)N(C)CC)ncn1-2 | 98.03%

[ask] Query for NMDA: what NMDA, PDSP raw data, mean does the record show for CCc1noc(-c2ncn3c2[C@@H](C)N=C(c2ccccc2F)c2cc(-c4ccccc4)ccc2-3)n1 ?
[reply] 37.76%

[ask] Query for NMDA: what NMDA, PDSP raw data, mean does the record show for C#Cc1ccc2c(c1)C(c1ccccc1Cl)=N[C@H](C)c1c(C(=O)NC)ncn1-2 ?
[reply] 77.15%

----------
- tested system: 5-HT1E (Homo sapiens, UniProt P28566)
- Construct: purchased NIMH Psychoactive Drug Screening Program (PDSP)
- Sequence (P28566 whole entry): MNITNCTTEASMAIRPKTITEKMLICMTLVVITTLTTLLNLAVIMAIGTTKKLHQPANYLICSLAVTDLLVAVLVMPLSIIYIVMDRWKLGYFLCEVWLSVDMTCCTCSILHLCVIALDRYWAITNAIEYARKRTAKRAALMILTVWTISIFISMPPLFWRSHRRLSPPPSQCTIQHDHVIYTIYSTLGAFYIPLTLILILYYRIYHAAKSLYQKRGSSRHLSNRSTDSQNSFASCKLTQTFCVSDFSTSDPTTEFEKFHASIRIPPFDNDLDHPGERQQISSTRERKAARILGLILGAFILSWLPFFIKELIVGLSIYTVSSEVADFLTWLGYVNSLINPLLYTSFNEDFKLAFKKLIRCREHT
- assay explanation: PDSP primary binding 5-HT1E
- run parameters: primary binding, 10,000 nM; last figure of the line = mean of the 4 before it
reported property: 5-HT1E, PDSP raw data, mean
Just so you know, I need the unit written after the number.

cpd smiles | 5-HT1E, PDSP raw data, mean
C#Cc1ccc2c(c1)C(c1ccccn1)=N[C@@H](C)c1c(C(=O)N(C)C)ncn1-2 | 18.14%
CCc1noc(-c2ncn3c2CN=C(c2ccccc2F)c2cc(C4CC4)ccc2-3)n1 | 11.75%
CC(C)c1noc(-c2ncn3c2[C@@H](C)N=C(c2ccccc2F)c2cc(Cl)ccc2-3)n1 | -14.78%
C#Cc1ccc2c(c1)C(c1ccccc1Cl)=N[C@H](C)c1c(C(=O)NC)ncn1-2 | 7.75%
C#Cc1ccc2c(c1)C(c1ccccn1)=N[C@@H](C)c1c(C(=O)NC)ncn1-2 | 19.33%
CCc1noc(-c2ncn3c2[C@@H](C)N=C(c2ccccc2F)c2cc(Cl)ccc2-3)n1 | 5.28%

[ask] I have this compound here, CCc1noc(-c2ncn3c2[C@@H](C)N=C(c2ccccc2F)c2cc(C4CC4)ccc2-3)n1 , and I need its recorded 5-HT1E, PDSP raw data, mean.
[reply] -18.76%

[ask] I have this compound here, C#Cc1ccc2c(c1)C(c1ccccc1F)=N[C@H](C)c1c(C(=S)N(C)C)ncn1-2 , and I need its recorded 5-HT1E, PDSP raw data, mean.
[reply] 34.07%

[ask] I have this compound here, CCc1noc(-c2ncn3c2[C@@H](C)N=C(c2ccccc2F)c2cc(-c4ccccc4)ccc2-3)n1 , and I need its recorded 5-HT1E, PDSP raw data, mean.
[reply] 5.88%

[ask] I have this compound here, C[C@H]1N=C(c2ccccc2F)c2cc(Cl)ccc2-n2cnc(-c3nc(C4CC4)no3)c21 , and I need its recorded 5-HT1E, PDSP raw data, mean.
[reply] -22.45%

[ask] I have this compound here, C[C@H]1N=C(c2ccccc2F)c2cc(-c3ccccc3)ccc2-n2cnc(C(=O)N(C)C)c21 , and I need its recorded 5-HT1E, PDSP raw data, mean.
[reply] 34.07%

[ask] I have this compound here, C#Cc1ccc2c(c1)C(c1ccccc1Cl)=N[C@H](C)c1c(C(=O)N(C)CC)ncn1-2 , and I need its recorded 5-HT1E, PDSP raw data, mean.
[reply] 19.25%

----------
- tested system: A1 (Homo sapiens, UniProt P30542)
- Construct: purchased NIMH Psychoactive Drug Screening Program (PDSP)
- Sequence (P30542 whole entry): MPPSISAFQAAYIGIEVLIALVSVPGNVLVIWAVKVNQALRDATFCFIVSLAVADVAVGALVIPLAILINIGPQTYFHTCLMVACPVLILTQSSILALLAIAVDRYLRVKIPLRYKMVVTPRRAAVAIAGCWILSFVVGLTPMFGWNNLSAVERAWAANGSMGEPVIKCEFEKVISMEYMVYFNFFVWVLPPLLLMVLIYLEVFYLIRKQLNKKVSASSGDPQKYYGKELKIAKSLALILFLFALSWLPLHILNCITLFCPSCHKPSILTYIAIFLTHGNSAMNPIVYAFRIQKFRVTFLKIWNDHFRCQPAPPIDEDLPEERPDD
- assay explanation: PDSP primary binding A1
- run parameters: 1.5 h; primary binding, 10,000 nM; last figure of the line = mean of the 4 before it; read-out: A1, PDSP raw data, mean
Below, each entry is listed with its recorded inhibition at 10 µM.
Provide the reading as a plain figure in %.

Worked cases, inhibition at 10 µM given:
molecule | result unit | inhibition at 10 µM
CC(C)c1noc(-c2ncn3c2[C@@H](C)N=C(c2ccccc2F)c2cc(Cl)ccc2-3)n1 [Compound 37] | % | 52.2
C#Cc1ccc2c(c1)C(c1ccccc1Cl)=N[C@H](C)c1c(C(=O)N(C)CC)ncn1-2 [Compound 29] | % | -6.38
CCc1noc(-c2ncn3c2[C@@H](C)N=C(c2ccccc2F)c2cc(-c4ccccc4)ccc2-3)n1 [Compound 35] | % | 27.1

Here's the next entry for you.
[ask] I have this molecule here, C#Cc1ccc2c(c1)C(c1ccccn1)=N[C@@H](C)c1c(C(=O)NC)ncn1-2 [Compound 23] , and I need its recorded inhibition at 10 µM.
[reply] 10.4
